# protocol summary: MTT cytotoxicity assay in melanocytes
# Assay type: cell-based
# conditions: human, tested at 10, 50, and 100 μM, FIG. 1, read-out: treatment concentration up to which no cytotoxicity was shown
reported property: MNTC at 48 h

Return MNTC at 48 h for the following compound: COC(=O)C[C@@H](O)CC(=O)O
≥ 10 µM

Measured values drawn from patent US20260355080A1 for this set.
